test: Stability in 25% mouse serum assessed as compound remaining at 75 ug/ml after 2 hrs by MALDI-TOF-MS analysis; type: ADME, cell-free; details: read-out: Stability
endpoint.name: remaining at 2 h, 75 ug/ml (%)
One number for each entry, in %.

H-VDKPPYLPRPRPPRRIYNR-NH2 [ONCOCIN] has a reported remaining at 2 h, 75 ug/ml of 60
